Each item that follows carries a reported pKd.
Target: T1, human SIRPβ1 extracellular domain + His-tag (NP_006056.2) (human, UniProt O00241 30-371)
T1 construct: also called hSIRPβ1; HuSIRPβ1
T1 sequence (O00241 other isoform, or with tags, fused parts or gaps): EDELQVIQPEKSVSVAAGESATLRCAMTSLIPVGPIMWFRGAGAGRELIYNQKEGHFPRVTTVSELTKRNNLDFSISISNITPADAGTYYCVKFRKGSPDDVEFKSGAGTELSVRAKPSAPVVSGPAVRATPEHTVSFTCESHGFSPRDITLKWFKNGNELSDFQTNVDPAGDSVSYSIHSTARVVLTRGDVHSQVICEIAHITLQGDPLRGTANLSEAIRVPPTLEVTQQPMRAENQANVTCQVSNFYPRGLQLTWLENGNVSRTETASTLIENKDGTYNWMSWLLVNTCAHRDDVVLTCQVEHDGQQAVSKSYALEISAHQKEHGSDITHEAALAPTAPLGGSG
Test: SPR, Ab captured, ECD-His analyte
For clarity, pKd is expressed as the negative log10 of concentration in mol/L.

binder | pKd
Antibody A12 (antibody, human IgG1, kappa, L234A L235A, V domains shown) VH: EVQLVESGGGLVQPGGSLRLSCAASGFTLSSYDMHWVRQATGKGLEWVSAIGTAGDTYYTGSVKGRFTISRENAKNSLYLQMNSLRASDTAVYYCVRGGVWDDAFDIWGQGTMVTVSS VL: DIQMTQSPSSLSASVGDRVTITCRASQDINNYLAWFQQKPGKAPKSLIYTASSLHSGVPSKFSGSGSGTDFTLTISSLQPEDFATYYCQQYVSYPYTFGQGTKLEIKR | 7.19

Could you now consider this next binder?
What value of measured pKd is listed for Antibody A5 (antibody, human IgG1, kappa, L234A L235A, V domains shown) VH: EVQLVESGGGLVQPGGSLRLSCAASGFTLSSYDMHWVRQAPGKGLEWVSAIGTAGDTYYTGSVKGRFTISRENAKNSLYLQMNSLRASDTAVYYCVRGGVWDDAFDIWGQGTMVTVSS VL: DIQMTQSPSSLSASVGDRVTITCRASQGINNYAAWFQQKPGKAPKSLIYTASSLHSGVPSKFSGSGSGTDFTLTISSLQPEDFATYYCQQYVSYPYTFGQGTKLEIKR ? 7.19
